# Test system: IGROV1 ovarian
# method-description: NCI-60 one-dose screen, 48 h (100 = growth as untreated, 0 = no growth, -100 = all killed)
# assay-context: 10 µM unless noted
# Experimental: Growth inhibition of the IGROV1 human tumor cell line is measured as a screen for anti-cancer activity. Cells are grown in 96 well plates and exposed to the test compound for 48 hours. Compounds are tested at a single concentration, which is 10^-5 M for most compounds. The reported endpoint is percent growth (GI% or GIPRCNT), where numbers from 0 - 100% represent growth inhibition, and numbers from -100% - 0 represent cell death. For example, a value of 40 represents 60% growth inhibition. […]
This is part of a sample that, as a whole, favours compounds with a hit. Of some 83,000 tested, about 20% had one in any assay.
Lab note: anything with growth at or over 50% counts as label 1; the rest go in label 0.

molecule	experimental-target	discrete-label
CCOC(=O)c1csc(NC(=O)COc2ccc(/C=C3\Oc4ccccc4C3=O)cc2)n1	IGROV1 ovarian	label 0
O=C(/C=C/c1cccs1)Nc1ncc(Cc2ccccc2F)s1	IGROV1 ovarian	label 0
N#CC1=C(c2ccccc2)Nc2c(c(-c3ccc(Cl)cc3)nn2-c2ccccc2)C12C(=O)Nc1ccc(Cl)cc12 (stereo not given)	IGROV1 ovarian	label 1
CC(=O)/C(=C\c1c(-c2ccccc2)[nH]c2ccccc12)S(C)(=O)=O	IGROV1 ovarian	label 1
COc1cc2cc(NCc3cccc(Cl)c3)nc(C)c2cc1OC	IGROV1 ovarian	label 0

====

# Test system: OVCAR-8 ovarian
# method-description: NCI-60 one-dose screen, 48 h (100 = growth as untreated, 0 = no growth, -100 = all killed)
# assay-context: 10 µM unless noted
This is part of a sample that, as a whole, favours compounds with a hit. Of some 83,000 tested, about 20% had one in any assay.

entry-smiles	growth / %
COc1cccc(/C=C2\COc3ccc(O)c(O)c3C2=O)c1	10.7
Cc1cc(N2CCN(CC(=O)Nc3ccc4c(ccn4C)c3)CC2)nc(N2CCCCCC2)n1	83.3
O=C(N/N=C/c1c(Cl)cccc1Cl)c1cccnc1Nc1cccc(C(F)(F)F)c1	49.4
Cn1cc(-c2csc(-c3c[nH]c4ccccc34)n2)c2cnccc21	18.2
COc1cc(-c2csc(NC(=O)c3ccc(N4CCOCC4)c(C(F)(F)F)c3)n2)cc(OC)c1OC	2.22

====

# Test system: LOX IMVI melanoma
# method-description: NCI-60 one-dose screen, 48 h
# assay-context: 10 µM unless noted
The panel holds about 83,000 compounds, 20% with a hit somewhere; the sample as a whole holds those more often. The source made the active and inactive calls. Rule for the calls: active = growth percent below 10; inactive = the rest.
Outcomes: 1 for active, -1 for inactive

molecule	experimental-target	discrete-label
O=C1c2c(c3c4ccccc4[nH]c3c3ccc4ccccc4c23)C(=O)N1CCN1CCNCC1	LOX IMVI melanoma	1
COc1ccc(C(C)=O)cc1S(=O)(=O)Nc1c(N)nc(SC)[nH]c1=O	LOX IMVI melanoma	-1
COC(=O)c1c(C)c2n(c1C)C(=O)C(c1ccccc1)=C2	LOX IMVI melanoma	-1
Clc1cccc(Nc2ncnc3ccc(-c4cnc5[nH]ccc5c4)cc23)c1	LOX IMVI melanoma	-1
CC1CCN(S(=O)(=O)c2ccc(S(=O)(=O)N3CCCC(c4nc5c(nnn5Cc5cccc(Cl)c5)c(=O)[nH]4)C3)cc2)CC1 (stereo not given)	LOX IMVI melanoma	-1
O=C(/C=C/c1cn(-c2ccccc2)nc1-c1ccc(Cl)cc1)c1ccc(F)cc1	LOX IMVI melanoma	-1
O=C(CSC(=S)n1cnnc1)NC(=O)c1ccccc1	LOX IMVI melanoma	-1
COc1ccc(-c2cc(-c3cc(OC)c(OC)c(OC)c3)c(C#N)c(=O)n2CCCCC(=O)NO)cc1	LOX IMVI melanoma	1
Cc1ccccc1/C=C/C(=O)c1cccc(OCCCOc2cccc(C(=O)/C=C/c3ccccc3C)c2)c1	LOX IMVI melanoma	-1
Cc1cccc(/C=C/c2c(C(=O)/C=C/c3ccccc3)c(C)nc3ccccc23)c1	LOX IMVI melanoma	1
